- PROTOCOL DESCRIPTION: Full pharmacokinetic study in mice
- MEASUREMENT CONDITIONS: male, CD1, mouse, plasma, po, 30 mg/kg
EXPERIMENTAL ENDPOINT: half-life (h)
Field: numeric (h). Do not append units.

Task item: Give the value of half-life reported for the following: Cc1nc(Nc2ncc(C(=O)Nc3c(Cl)ccnc3C)s2)cc(N2CCN(CCO)CC2)n1 [Compound B3]
Reply: 2.4

* * *

- PROTOCOL DESCRIPTION: Human plasma-protein binding
- MEASUREMENT CONDITIONS: Table 5.1A
EXPERIMENTAL ENDPOINT: Human plasma-protein binding, Percentage unbound (%)

See these solved cases before continuing.
INSERT INTO results (molecule, endpoint_result) VALUES
  ('Cc1nc(Nc2ncc(C(=O)Nc3c(CF)csc3Cl)s2)cc(N2CCN(C)C(C)C2)n1 (racemic) [Compound E10]', '1%'),
  ('Cc1nc(Nc2ncc(C(=O)Nc3c(CF)csc3Cl)s2)cc(N2CCN(C)CC2)n1 [Compound E9]', '1%');

Task item: Using the record for Cc1nc(Nc2ncc(C(=O)Nc3c(CF)csc3Cl)s2)cc(N2CCCN(C)CC2)n1 [Compound E11] , state its measured Human plasma-protein binding, Percentage unbound (%).
Reply: 3%

Task item: Determine from records and report Human plasma-protein binding, Percentage unbound (%) for Cc1nc(Nc2ncc(C(=O)Nc3c(CF)csc3Cl)s2)cc(N2CCN(CCO)CC2)n1 [Compound E3]
Reply: 2%

Task item: For the molecule Cc1nc(Nc2ncc(C(=O)Nc3c(C)csc3Cl)s2)cc(N2CCN(CCO)CC2)n1 [Compound C7] , report Human plasma-protein binding, Percentage unbound (%).
Reply: 2%

Task item: Query Human plasma-protein binding, Percentage unbound (%) for Cc1nc(Nc2ncc(C(=O)Nc3c(C(F)F)csc3Cl)s2)cc(N2CCN(CCO)CC2)n1 [Compound E4]
Reply: <1%

Task item: Return value of Human plasma-protein binding, Percentage unbound (%) for input Cc1nc(Nc2ncc(C(=O)Nc3c(Cl)ccnc3C)s2)cc(N2CCN(CCO)CC2)n1 [Compound B3] , no commentary.
Reply: 7%

* * *

Listed here: items and their measured IC50.
- TARGET UNDER TEST: SRC (GST-HIS-tag) (Homo sapiens (Human))

INSERT INTO results (molecule, endpoint_result) VALUES
  ('Cc1nc(Nc2ncc(C(=O)Nc3cccnc3C)s2)cc(N2CCN(CCO)CC2)n1 [Compound C6]', '< 1.5 nM');

Task item: For SRC (GST-HIS-tag) (Homo sapiens (Human)), give IC50 of the listed molecule: Cc1nc(Nc2ncc(C(=O)Nc3c(C)ccnc3C)s2)cc(N2CCN(CCO)CC2)n1 [Compound C1]
Reply: < 1.5 nM

Task item: Please indicate recorded IC50 of Cc1nc(NCCO)cc(Nc2ncc(C(=O)Nc3c(Cl)ccnc3C)s2)n1 [Compound C11] measured with SRC (GST-HIS-tag) (Homo sapiens (Human)).
Reply: < 1.5 nM

* * *

- PROTOCOL DESCRIPTION: in vivo
- MEASUREMENT CONDITIONS: male, CD1, mouse, po, 30 mg/kg
EXPERIMENTAL ENDPOINT: Tmax (min)
Express the result in min but write the number alone.

Solved cases below.
INSERT INTO assay_data (compound, endpoint_result) VALUES
  ('Cc1nc(Nc2ncc(C(=O)Nc3c(C(F)F)csc3Cl)s2)cc(N2CCN(CCO)CC2)n1', 120),
  ('Cc1nc(Nc2ncc(C(=O)Nc3c(CF)csc3Cl)s2)cc(N2CCN(C)C(C)C2)n1 (racemic)', 15);

Task item: Hello, please tell me recorded Tmax for this one: Cc1nc(Nc2ncc(C(=O)Nc3c(CF)csc3Cl)s2)cc(N2CCN(C)CC2)n1
Reply: 15

* * *

Parameter IC50: see the listing below.
- TARGET UNDER TEST: SIK2 (Homo sapiens (Human), UniProt Q9H0K1)
- PROTOCOL DESCRIPTION: SIK2 kinase inhibition (IC50)
- MEASUREMENT CONDITIONS: read-out: Kinase: IC50 (nM) SIK2

INSERT INTO results (compound, experimental_endpoint, endpoint_result) VALUES
  ('Cc1nc(Nc2ncc(C(=O)Nc3c(C(F)F)csc3Cl)s2)cc(N2CCN(CCO)CC2)n1', 'IC50', '< 20 nM'),
  ('Cc1nc(Nc2ncc(C(=O)Nc3c(Cl)csc3F)s2)cc(N2CCN(C)CC2)n1', 'IC50', '< 20 nM'),
  ('Cc1nc(Nc2ncc(C(=O)Nc3c(C(F)F)csc3Cl)s2)cc(N2CCN(C)CC2)n1', 'IC50', '< 10 nM'),
  ('Cc1nc(Nc2ncc(C(=O)Nc3c(C(F)F)csc3Cl)s2)cc(N2CCN(C)C(C)C2)n1 (racemic)', 'IC50', '< 20 nM'),
  ('Cc1nc(Nc2ncc(C(=O)Nc3c(CF)csc3Cl)s2)cc(N2CCN(C)CC2)n1', 'IC50', '< 10 nM');

Task item: Give the value of IC50 reported for the following: Cc1nc(Nc2ncc(C(=O)Nc3c(Cl)csc3F)s2)cc(N2CCN(CCO)CC2)n1 [Compound E2]
Reply: < 10 nM

Task item: Determine from records and report IC50 for Cc1nc(Nc2ncc(C(=O)Nc3c(CF)csc3Cl)s2)cc(N2CCN(CCO)CC2)n1
Reply: < 10 nM

Task item: Supply recorded IC50 for Cc1nc(Nc2ncc(C(=O)Nc3c(CF)csc3Cl)s2)cc(N2CCN(C)C(C)C2)n1 (racemic) here.
Reply: < 20 nM

Task item: Let me know recorded IC50 for Cc1nc(Nc2ncc(C(=O)Nc3c(CF)csc3Cl)s2)cc(N2CCNC(=O)C2)n1 , thanks.
Reply: < 20 nM

Task item: Recall and state the measured IC50 for Cc1nc(Nc2ncc(C(=O)Nc3c(CF)csc3Cl)s2)cc(N2CCCN(C)CC2)n1 .
Reply: < 10 nM

* * *

molecules and their reported efflux ratio
- TARGET UNDER TEST: MDR1 (P-gp) (Homo sapiens (Human))
- PROTOCOL DESCRIPTION: MDR1-MDCK effective efflux assay
- MEASUREMENT CONDITIONS: dog, MDCK-MDR1, P-gP driven efflux ratio (MDR1/wt), Table 5.1B
Note: the reply should be a number with no unit written.

Here's what some known entries look like.
INSERT INTO measurements (molecule, experimental_endpoint, endpoint_result) VALUES
  ('Cc1nc(Nc2ncc(C(=O)Nc3c(CF)csc3Cl)s2)cc(N2CCN(CCO)CC2)n1', 'efflux ratio', 12),
  ('Cc1nc(Nc2ncc(C(=O)Nc3c(CF)csc3Cl)s2)cc(N2CCCN(C)CC2)n1', 'efflux ratio', 24),
  ('Cc1nc(Nc2ncc(C(=O)Nc3c(CF)csc3Cl)s2)cc(N2CCN(C)C(C)C2)n1 (racemic)', 'efflux ratio', 19),
  ('Cc1nc(Nc2ncc(C(=O)Nc3c(CF)csc3Cl)s2)cc(N2CCN(C)CC2)n1', 'efflux ratio', 27);

Now look at this one.
Task item: Output efflux ratio of Cc1nc(Nc2ncc(C(=O)Nc3c(C(F)F)csc3Cl)s2)cc(N2CCN(CCO)CC2)n1
Reply: 11

* * *

Listed molecules paired with reported concentration at 6 h
- PROTOCOL DESCRIPTION: Screening PK in mice after 30 mg/kg po
- MEASUREMENT CONDITIONS: mouse, plasma, po, 30 mg/kg, Free plasma concentration after 6 h (nM), mice, 30 mg/kg po, 6 h
Your answer should be a plain number; it is taken to be in nM.

// below: answered molecules
INSERT INTO results (molecule, readout_unit, endpoint_result) VALUES
  ('Cc1nc(Nc2ncc(C(=O)Nc3c(CF)csc3Cl)s2)cc(N2CCN(C)C(C)C2)n1 (racemic)', 'nM', 3.3),
  ('Cc1nc(Nc2ncc(C(=O)Nc3c(CF)csc3Cl)s2)cc(N2CCCN(C)CC2)n1', 'nM', 7.7),
  ('Cc1nc(Nc2ncc(C(=O)Nc3c(CF)csc3Cl)s2)cc(N2CCN(C)CC2)n1', 'nM', 7.7);

Task item: State its concentration at 6 h: Cc1nc(Nc2ncc(C(=O)Nc3c(C(F)F)csc3Cl)s2)cc(N2CCN(CCO)CC2)n1
Reply: 17.9

Task item: Supply reported concentration at 6 h belonging to this molecule: Cc1nc(Nc2ncc(C(=O)Nc3c(CF)csc3Cl)s2)cc(N2CCN(CCO)CC2)n1
Reply: 3.7

* * *

- PROTOCOL DESCRIPTION: Mouse hepatocyte stability
- Assay type: in vitro ADME
- MEASUREMENT CONDITIONS: hepatocytes
Doc: threshold 1 h (exclusive). Items with half-life beneath it return YES; others return NO.

Task item: Answer whether the compound Cc1nc(Nc2ncc(C(=O)Nc3c(CF)csc3Cl)s2)cc(N2CCN(C)C(C)C2)n1 (racemic) [Compound E10] has half-life strictly less than 1 h
Reply: NO

Task item: In the record for Cc1nc(Nc2ncc(C(=O)Nc3c(CF)csc3Cl)s2)cc(N2CCN(C)CC2)n1 [Compound E9] , is half-life less than 1 h?
Reply: NO

Task item: Problem: For the compound Cc1nc(Nc2ncc(C(=O)Nc3c(CF)csc3Cl)s2)cc(N2CCN(CCO)CC2)n1 [Compound E3] , is half-life under 1 h?
Reply: NO

Task item: Determine if Cc1nc(Nc2ncc(C(=O)Nc3c(C)csc3Cl)s2)cc(N2CCN(CCO)CC2)n1 [Compound C7] shows half-life strictly lower than 1 h.
Reply: YES

Task item: Does the reported half-life of Cc1nc(Nc2ncc(C(=O)Nc3c(CF)csc3Cl)s2)cc(N2CCCN(C)CC2)n1 [Compound E11] stay below 1 h?
Reply: YES

Task item: Find out if reported half-life for Cc1nc(Nc2ncc(C(=O)Nc3c(C(F)F)csc3Cl)s2)cc(N2CCN(CCO)CC2)n1 [Compound E4] is less than 1 h
Reply: NO

These data points were gathered from patent US20230348453A1.
